Measured self-cleavage kobs at 40 uM GlcN6P values are reported for all entries that follow.
B1: glmS ribozyme (parent)
chain: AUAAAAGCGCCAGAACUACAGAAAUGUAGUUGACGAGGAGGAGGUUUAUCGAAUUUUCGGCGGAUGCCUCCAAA

Variants of: B1
Assay Remarks: self-cleavage kobs at 40 uM GlcN6P; higher = faster cleavage; RNA array
Condition Context: with glucosamine-6-phosphate
Fewer inactive variants are shown than the library holds.

# Variant Identifier, self-cleavage kobs at 40 uM GlcN6P
records = [
    ("U54A A64G", "0.00058 s⁻¹"),
    ("C10G C11G C68U", "< 1e-05 s⁻¹"),
    ("U45G C70U", "0.000542 s⁻¹"),
    ("A42G G63A U69G", "< 1e-05 s⁻¹"),
    ("G29U G43A G63A", "< 1e-05 s⁻¹"),
    ("G29A U49A", "< 1e-05 s⁻¹"),
    ("A12C G63A", "< 1e-05 s⁻¹"),
    ("A42G C67G", "0.000618 s⁻¹"),
    ("A14G G59C", "< 1e-05 s⁻¹"),
    ("C10U G13A C68A", "< 1e-05 s⁻¹"),
    ("A52G U65A U69G C70U", "5.09e-05 s⁻¹"),
    ("C11A G66U", "< 1e-05 s⁻¹"),
    ("A6G G37U", "< 1e-05 s⁻¹"),
    ("G9C A12C A14U U49G", "< 1e-05 s⁻¹"),
    ("U56G C71U", "0.000303 s⁻¹"),
    ("U46C U56G", "5.6e-05 s⁻¹"),
    ("U31A G40A", "7.32e-05 s⁻¹"),
    ("G13U C50G", "4.61e-05 s⁻¹"),
    ("A15U A39G", "0.000203 s⁻¹"),
    ("U30C G51C", "< 1e-05 s⁻¹"),
    ("C10A U47C U54C G66U", "< 1e-05 s⁻¹"),
    ("G59U C61A", "< 1e-05 s⁻¹"),
    ("A14U G38A U45G G63C", "< 1e-05 s⁻¹"),
    ("G37U G41C C67A", "< 1e-05 s⁻¹"),
    ("C8U C11G C50U U56C U69G", "4.97e-05 s⁻¹"),
    ("U31A G66U", "2.99e-05 s⁻¹"),
    ("C8U A39C G41A A42C C58G A64G G66A", "< 1e-05 s⁻¹"),
    ("G35C U65C", "< 1e-05 s⁻¹"),
    ("U65G C67G", "3.46e-05 s⁻¹"),
    ("G7U G35U", "< 1e-05 s⁻¹"),
    ("G59C C68U", "< 1e-05 s⁻¹"),
    ("A6C C67U", "< 1e-05 s⁻¹"),
    ("G35A U45C", "< 1e-05 s⁻¹"),
    ("U30A A42G", "0.000294 s⁻¹"),
    ("U49A C68A", "< 1e-05 s⁻¹"),
    ("A15U A36C U46G", "< 1e-05 s⁻¹"),
    ("U31C A64G", "7.83e-05 s⁻¹"),
    ("U30A G37C U65C", "< 1e-05 s⁻¹"),
    ("U45A U55A A64G", "0.00112 s⁻¹"),
    ("C16G A53U", "8.15e-05 s⁻¹"),
    ("C8A A36U A64U C70U", "< 1e-05 s⁻¹"),
    ("C8G C16G G41A U47A", "< 1e-05 s⁻¹"),
    ("G40C C58G C67U", "< 1e-05 s⁻¹"),
    ("U30A A33U U56C", "< 1e-05 s⁻¹"),
    ("G38C G44U C58U A64U", "< 1e-05 s⁻¹"),
    ("A14U C16G G32U G44A A48C C61U U69G", "< 1e-05 s⁻¹"),
    ("C50U A53U", "< 1e-05 s⁻¹"),
    ("G29A U55C C61G", "< 1e-05 s⁻¹"),
    ("G41C U65G", "< 1e-05 s⁻¹"),
    ("C11G G62A", "< 1e-05 s⁻¹"),
    ("A42G G63A", "< 1e-05 s⁻¹"),
    ("G43U C58U", "< 1e-05 s⁻¹"),
    ("C11U A33G G37U C71A", "< 1e-05 s⁻¹"),
    ("A6G A52U C61G", "< 1e-05 s⁻¹"),
    ("U57A G63U C70G", "< 1e-05 s⁻¹"),
    ("C16U A53C", "0.000147 s⁻¹"),
    ("C10U A33G", "< 1e-05 s⁻¹"),
    ("A33U U46A", "< 1e-05 s⁻¹"),
    ("C34G A42G", "< 1e-05 s⁻¹"),
    ("A48C U69G", "< 1e-05 s⁻¹"),
    ("A39U U45A", "0.000759 s⁻¹"),
    ("U49C G63A C67G", "< 1e-05 s⁻¹"),
    ("G32U C34A A48U C70A", "< 1e-05 s⁻¹"),
    ("G37U G40U U45C", "< 1e-05 s⁻¹"),
    ("C11A A48U", "< 1e-05 s⁻¹"),
    ("C10A U31C", "< 1e-05 s⁻¹"),
    ("G29U G35A G40C A42G", "< 1e-05 s⁻¹"),
    ("G35A U47A G51U", "< 1e-05 s⁻¹"),
    ("A15U C34G", "< 1e-05 s⁻¹"),
    ("G51C C61A", "< 1e-05 s⁻¹"),
    ("G13A G41C", "< 1e-05 s⁻¹"),
    ("A14C A36C C61G", "< 1e-05 s⁻¹"),
    ("G13C G37A C50U G59C", "< 1e-05 s⁻¹"),
    ("A39C C50A", "< 1e-05 s⁻¹"),
    ("C16U A33U G38A G40A", "< 1e-05 s⁻¹"),
    ("U46G U49G", "< 1e-05 s⁻¹"),
    ("G7U C67U", "< 1e-05 s⁻¹"),
    ("G62A C67U", "< 1e-05 s⁻¹"),
    ("G40U U55A", "0.00026 s⁻¹"),
    ("G29C G62U", "< 1e-05 s⁻¹"),
    ("U57A U65C", "< 1e-05 s⁻¹"),
    ("C8U A12U A33C G59U C67G U69G", "< 1e-05 s⁻¹"),
    ("G41A A52G G59A", "< 1e-05 s⁻¹"),
    ("G44C G62C", "< 1e-05 s⁻¹"),
    ("G43A G51C U54C C71U", "< 1e-05 s⁻¹"),
    ("G51U G60C C70G", "< 1e-05 s⁻¹"),
    ("G9U G41A", "< 1e-05 s⁻¹"),
    ("G40U A48G G59U", "< 1e-05 s⁻¹"),
    ("C8U A14G", "< 1e-05 s⁻¹"),
    ("C8G A36C", "< 1e-05 s⁻¹"),
    ("G7A A52U G63C", "< 1e-05 s⁻¹"),
]
